target: TPβ (Homo sapiens, UniProt P21731); construct: expressed in transfected cells; test: U46619-induced [Ca2+]i mobilization in HEK.TPβ cells; type: cell-based; conditions: HEK.TPβ cells; 1 μM U46619; Table 2; read-out: IC50 data for U46619-mediated [Ca2+]i mobilization, TPβ
Sequence (P21731 1-407 isoform P21731-2): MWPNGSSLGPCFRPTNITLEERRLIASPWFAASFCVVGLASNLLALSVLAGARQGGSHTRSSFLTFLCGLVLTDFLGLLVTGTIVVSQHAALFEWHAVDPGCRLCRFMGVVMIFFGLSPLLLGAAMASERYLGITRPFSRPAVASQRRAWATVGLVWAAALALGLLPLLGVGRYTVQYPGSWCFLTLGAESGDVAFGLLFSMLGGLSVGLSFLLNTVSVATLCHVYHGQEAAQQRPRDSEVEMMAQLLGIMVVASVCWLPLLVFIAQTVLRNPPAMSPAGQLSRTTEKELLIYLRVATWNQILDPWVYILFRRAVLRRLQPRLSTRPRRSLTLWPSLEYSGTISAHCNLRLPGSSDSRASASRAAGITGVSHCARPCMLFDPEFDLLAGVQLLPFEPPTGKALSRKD
pIC50: −log10 of the molar value.
Catalogue of pIC50 values
parameter: pIC50

[[record]]
molecule = "COC(=O)c1ccc(-c2cccc(Oc3ccc([N+](=O)[O-])cc3S(=O)(=O)NC(=O)NC(C)(C)C)c2)cc1"
result_value = 7.44

[[record]]
molecule = "CC(C)(C)NC(=O)NS(=O)(=O)c1cc([N+](=O)[O-])ccc1Oc1cccc(I)c1"
result_value = 5.70

[[record]]
molecule = "CC(C)(C)NC(=O)NS(=O)(=O)c1cc([N+](=O)[O-])ccc1Oc1cccc(-c2ccc(C(F)(F)F)cc2)c1"
result_value = 7.07

[[record]]
molecule = "CC(=O)c1ccc(-c2cccc(Oc3ccc([N+](=O)[O-])cc3S(=O)(=O)NC(=O)NC(C)(C)C)c2)cc1"
result_value = 7.47

[[record]]
molecule = "COc1cccc(Oc2ccc([N+](=O)[O-])cc2S(=O)(=O)NC(=O)NC(C)(C)C)c1 [Compound 9h, reference compound]"
result_value = 6.57

[[record]]
molecule = "CCCCCNC(=O)NS(=O)(=O)c1cc([N+](=O)[O-])ccc1Oc1cccc(-c2ccc(OC)cc2)c1"
result_value = 5.03

[[record]]
molecule = "COc1ccc(-c2cccc(Oc3ccc([N+](=O)[O-])cc3S(=O)(=O)NC(=O)NC(C)(C)C)c2)cc1"
result_value = 8.13

[[record]]
molecule = "Cc1ccc(-c2cccc(Oc3ccc([N+](=O)[O-])cc3S(=O)(=O)NC(=O)NC(C)(C)C)c2)cc1"
result_value = 7.78

[[record]]
molecule = "CCCCCNC(=O)NS(=O)(=O)c1cc([N+](=O)[O-])ccc1Oc1cccc(-c2ccc(C)cc2)c1"
result_value = 5.81

